# Test system: U251 CNS
# protocol-details: NCI-60 one-dose screen, 48 h (100 = growth as untreated, 0 = no growth, -100 = all killed)
# settings: 10 µM unless noted
This is part of a sample that, as a whole, favours compounds with a hit. Of some 83,000 tested, about 20% had one in any assay.
measure-name: growth (%)
Numeric only. Scale: %

Here is how some molecules turned out for growth.
[[record]]
molecule = "C#Cc1nc(/C=C/C(=O)c2nccn2C)cs1"
readout_units = "%"
numeric_value = -74.3

[[record]]
molecule = "NC(N)=Nc1ccc(Oc2cccc(NC(N)=Nc3ccc(I)cc3F)c2)cc1"
readout_units = "%"
numeric_value = 47.4

[[record]]
molecule = "COc1ccc(C(=O)CSc2nc3c(c(Nc4ccc(S(N)(=O)=O)cc4)n2)CCCC3)cc1"
readout_units = "%"
numeric_value = 89.9

[[record]]
molecule = "CC(c1ccccc1)N1CSc2nc3ncncc3n2C1 (stereo not drawn)"
readout_units = "%"
numeric_value = 70.6


# ---- query molecule ----
growth for O=C(CSc1nc2ccccc2c(=O)n1-c1ccccc1)Nc1cccc(C(=O)/C=C/c2ccccc2Cl)c1 is 97.7

====

# Test system: K-562 leukemia
# protocol-details: NCI-60 one-dose screen, 48 h (100 = growth as untreated, 0 = no growth, -100 = all killed)
# settings: 10 µM unless noted
This is part of a sample that, as a whole, favours compounds with a hit. Of some 83,000 tested, about 20% had one in any assay. Active and inactive are the calls of the source. The calls were made as follows: active = growth percent below 10; inactive = the rest.
measure-name: growth

[[record]]
molecule = "N#Cc1cnc2ccc(-c3cnc4[nH]ncc4c3)cc2c1N1CCc2cc(F)c(Cl)cc21"
measure_name = "growth"
result = "16.6% (inactive)"


growth for NC(N)=Nc1ccc(Oc2cccc(Oc3ccc(Cl)c(C(F)(F)F)c3)c2)cn1 is -54.7% (active)

growth for CC(=O)c1ccc(Nc2nc(SCC(C)C)nc(-c3ccc(F)cc3)c2C#N)cc1 is 106% (inactive)

growth for CCN1CCN(Cc2ccc(C(=O)Nc3ccc(C)c(Oc4ccc(-c5[nH]nc6ncnc(N)c56)cc4)c3)cc2C(F)(F)F)CC1 is 3.44% (active)

growth for O=C(NNc1nc2cc(F)cc(F)c2n2cccc12)c1cnccn1 is 14.3% (inactive)

growth for C#Cc1nc(C(C)=O)cs1 is 90.6% (inactive)

growth for COc1cccc(/C=C(/C)c2ccc3cccc(OC)c3[o+]2)c1O is 97.2% (inactive)

growth for O=C(NNc1nc2cc(F)ccc2n2c(CN3CCCC3)ccc12)c1cnccn1 is 11.1% (inactive)

growth for COc1ccc(C2CC(c3cccc(Nc4nc(Cl)nc5cc(OC)c(OC)cc45)c3)=Nc3c(N)nc(N)nc3N2)cc1 (stereo not drawn) is 4.51% (active)

growth for COc1ccc(/C=C/C(=O)c2cccc(NC(=O)CSc3nc4ccccc4c(=O)n3-c3ccccc3)c2)cc1OC is 89.9% (inactive)

====

# maps each entry to its growth
# Test system: LOX IMVI melanoma
# protocol-details: NCI-60 one-dose screen, 48 h (100 = growth as untreated, 0 = no growth, -100 = all killed)
# settings: 10 µM unless noted
This is part of a sample that, as a whole, favours compounds with a hit. Of some 83,000 tested, about 20% had one in any assay.
Numeric only. Scale: %

[[record]]
compound = "CC(=O)c1ccc(Nc2nc(SCC(C)C)nc(-c3ccccc3)c2C#N)cc1"
numeric_value = 86.9

[[record]]
compound = "O=C(NNc1nc2cc(F)ccc2n2c(CN3CC4CNCC4C3)ccc12)c1cnccn1 (stereo not given)"
numeric_value = 7.74

[[record]]
compound = "Brc1ccccc1/C=N/Nc1nc(N/N=C/c2ccccc2Br)nc(N2CCOCC2)n1"
numeric_value = 103

[[record]]
compound = "C#Cc1ccc(C(=O)NCc2ccc(/C=C/C(=O)c3nccn3C)cc2)cc1"
numeric_value = -74.8

[[record]]
compound = "COc1ccc(Oc2ccc(/C=N/NC(=O)CSc3nc4ccccc4c(=O)n3-c3ccc(Cl)cc3)cc2)cc1"
numeric_value = 14.7


growth for CCOC(=O)c1c(Nc2ccccc2)nn2c(-c3ccc(Cl)cc3)ccnc12 is 64.5

growth for Cc1ccc(-c2cc3nc(C(Cl)Cl)nc(C)n3n2)cc1 is 96.8

growth for COc1ccc(C(=O)CSc2nc3c(c(Nc4ccc(S(N)(=O)=O)cc4)n2)CCCC3)cc1 is 83

growth for CCN(CC)c1ccc2c(c1)Oc1nc(N)c(C#N)c(N)c1C2Sc1ccc(F)cc1 (stereo not given) is -92.6

growth for COc1ccccc1NC1=C(Cl)C(=O)c2nc(C)ccc2C1=O is -73
